Origin of the recorded values: patent US7569563B2

experiment: Cytostatic effects on NHDF cells in the anti-HCMV cytopathogenicity test
Format: cell-based
conditionNotes: human, human prepuce fibroblasts (NHDF cells); substance concentration at which no visible cytostatic effects on NHDF cells are evident vs untreated cell control; 6 days incubation
Structures can show the parent of a compound that is named as a salt.

compound	unitString	CC50 at 6 days
COc1c(N2C[C@@H](C)N(CC(=O)O)[C@@H](C)C2)c(F)cc2c(=O)c(C(=O)NCc3ccc(Cl)cc3Cl)cn(CCF)c12	µM	47
CCOC(=O)CN1[C@H](C)CN(c2c(F)cc3c(=O)c(C(=O)NCc4ccc(Cl)cc4Cl)cn(CC(F)(F)F)c3c2OC)C[C@@H]1C	µM	11
COc1c(N2C[C@@H](C)N(CC(=O)O)[C@@H](C)C2)c(F)cc2c(=O)c(C(=O)NCc3ccc(Cl)cc3C)cn([C@H]3C[C@H]3F)c12	µM	24
COc1c(N2C[C@@H](C)N(C(C)C(=O)O)[C@@H](C)C2)c(F)cc2c(=O)c(C(=O)NCc3ccc(Cl)cc3Cl)cn(C3CC3)c12 (stereo partly drawn)	µM	94
COc1c(N2C[C@@H](C)N(CC(=O)O)[C@@H](C)C2)c(F)cc2c(=O)c(C(=O)NCc3ccc(Cl)cc3Cl)cn(C3CC3)c12 [Example 29, hydrochloride]	µM	47
COc1c(N2C[C@@H](C)N(CC(=O)O)[C@@H](C)C2)c(F)cc2c(=O)c(C(=O)NCc3ccc(Cl)cc3Cl)cn(CC(F)(F)F)c12	µM	18
